// provenance: patent US20210196796A1

Listing of recorded NKL Ortho Proliferation Signal 1:2 by entry.
- System under test: T1, orthogonal hCD122 receptor (hoRb), hCD122 with H133D and Y134F (human, UniProt P14784 27-550)
- T1 sequence: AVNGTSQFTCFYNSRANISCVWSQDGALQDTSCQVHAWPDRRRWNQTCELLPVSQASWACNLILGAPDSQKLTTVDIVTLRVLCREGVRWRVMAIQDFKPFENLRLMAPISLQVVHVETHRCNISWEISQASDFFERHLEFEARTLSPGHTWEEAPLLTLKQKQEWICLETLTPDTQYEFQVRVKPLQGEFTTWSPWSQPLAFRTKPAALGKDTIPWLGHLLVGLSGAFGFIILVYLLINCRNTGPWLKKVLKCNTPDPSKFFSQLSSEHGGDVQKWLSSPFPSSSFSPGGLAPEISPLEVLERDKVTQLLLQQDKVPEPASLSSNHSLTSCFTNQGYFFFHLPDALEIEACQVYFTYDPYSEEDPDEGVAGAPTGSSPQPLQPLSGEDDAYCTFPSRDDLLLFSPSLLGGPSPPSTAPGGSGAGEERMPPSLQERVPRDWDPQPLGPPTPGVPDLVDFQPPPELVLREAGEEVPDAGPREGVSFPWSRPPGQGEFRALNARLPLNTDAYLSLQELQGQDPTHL
- Experiment summary: cell-based or functional assay
Just the number, please, no unit after it.

Please review the following examples before continuing.
Q126S, SQVLKA (ligand) APTSSSTKKTQLQLSQLLVLLKAILNGINNYKNPKLTRMLTFKFYMPKKATELKHLQCLEEELKPLEEVLNLAQSKNFHLRPRDLISNINVIVLELKGSETTFMCEYADETATIVEFLNRWITFCSSIISTLT	9460
C125A, SQVLKA (ligand) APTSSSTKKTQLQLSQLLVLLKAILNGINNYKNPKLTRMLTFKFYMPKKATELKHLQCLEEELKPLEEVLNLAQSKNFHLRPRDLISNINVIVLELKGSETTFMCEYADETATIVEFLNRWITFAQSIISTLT	42000
T3K, SQVLKA (ligand) APKSSSTKKTQLQLSQLLVLLKAILNGINNYKNPKLTRMLTFKFYMPKKATELKHLQCLEEELKPLEEVLNLAQSKNFHLRPRDLISNINVIVLELKGSETTFMCEYADETATIVEFLNRWITFCQSIISTLT	42900
SQVLEA (ligand) APTSSSTKKTQLQLSQLLVLLEAILNGINNYKNPKLTRMLTFKFYMPKKATELKHLQCLEEELKPLEEVLNLAQSKNFHLRPRDLISNINVIVLELKGSETTFMCEYADETATIVEFLNRWITFCQSIISTLT	21100
Q74H, SQVLKA (ligand) APTSSSTKKTQLQLSQLLVLLKAILNGINNYKNPKLTRMLTFKFYMPKKATELKHLQCLEEELKPLEEVLNLAHSKNFHLRPRDLISNINVIVLELKGSETTFMCEYADETATIVEFLNRWITFCQSIISTLT	58300

Input T3R, SQVLKA (ligand) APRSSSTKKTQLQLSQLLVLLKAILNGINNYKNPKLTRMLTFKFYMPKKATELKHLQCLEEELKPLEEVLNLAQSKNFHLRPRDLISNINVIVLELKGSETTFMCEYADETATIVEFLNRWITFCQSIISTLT . Output NKL Ortho Proliferation Signal 1:2: 58400

Input SQVLLA (ligand) APTSSSTKKTQLQLSQLLVLLLAILNGINNYKNPKLTRMLTFKFYMPKKATELKHLQCLEEELKPLEEVLNLAQSKNFHLRPRDLISNINVIVLELKGSETTFMCEYADETATIVEFLNRWITFCQSIISTLT . Output NKL Ortho Proliferation Signal 1:2: 16400

Input T3A, SQVLKA (ligand) APASSSTKKTQLQLSQLLVLLKAILNGINNYKNPKLTRMLTFKFYMPKKATELKHLQCLEEELKPLEEVLNLAQSKNFHLRPRDLISNINVIVLELKGSETTFMCEYADETATIVEFLNRWITFCQSIISTLT . Output NKL Ortho Proliferation Signal 1:2: 69100

Input R81Y, SQVLKA (ligand) APTSSSTKKTQLQLSQLLVLLKAILNGINNYKNPKLTRMLTFKFYMPKKATELKHLQCLEEELKPLEEVLNLAQSKNFHLYPRDLISNINVIVLELKGSETTFMCEYADETATIVEFLNRWITFCQSIISTLT . Output NKL Ortho Proliferation Signal 1:2: 59800

Input T3G, SQVLKA (ligand) APGSSSTKKTQLQLSQLLVLLKAILNGINNYKNPKLTRMLTFKFYMPKKATELKHLQCLEEELKPLEEVLNLAQSKNFHLRPRDLISNINVIVLELKGSETTFMCEYADETATIVEFLNRWITFCQSIISTLT . Output NKL Ortho Proliferation Signal 1:2: 58900
